Here, each record is paired with measured Morningglory plant response rating data.
# Test system: morningglory
# Assay remarks: Test A preemergence
# Assay type: in vivo, Ipomoea spp.
# Condition set: 1000 g ai/ha, 0 to 100 scale, 0 no effect, 100 complete control, approx. 10 days
Parameter measured: Morningglory plant response rating

In [3]: df
Out[3]:
                         chemical_structure                  parameter_measured  measured
0         Clc1cnc(Oc2ccccc2-n2cc(Br)nn2)nc1  Morningglory plant response rating       100
1  C=C(C)c1cn(-c2c(Br)cccc2Oc2ncc(Cl)cn2)nn1  Morningglory plant response rating        10
2        N#Cc1cnn(-c2ccccc2Oc2ncc(Br)cn2)n1  Morningglory plant response rating         0
3        N#Cc1cnn(-c2ccccc2Oc2ncc(Cl)cn2)n1  Morningglory plant response rating         0

###

# Test system: corn
# Assay remarks: Test E preemergence
# Assay type: in vivo, Zea mays
# Condition set: 62 g ai/ha, scale 0 to 100 (0 no effect, 100 complete control)
# Corn plant response rating values compiled below
Parameter measured: Corn plant response rating

In [3]: df
Out[3]:
                         chemical_structure  measured
0    N#Cc1cccc(Oc2ncc(Cl)cn2)c1-n1cc(Br)cn1         0
1  Cc1cnc(Oc2cccc(C#N)c2-n2cc(C(F)(F)F)cn2)nc1        15
2    Cc1cnc(Oc2cccc(C#N)c2-n2cc(C#N)cn2)nc1         0
3  NC(=S)c1cccc(Oc2ncc(Cl)cn2)c1-n1cc(Cl)cn1         0

###

# System: wheat, winter
# Assay remarks: Test C postemergence
# Type: in vivo, Triticum aestivum
# Condition set: 125 g ai/ha, postemergence; visual rating, scale 0 to 100 (0 no effect, 100 complete control)
Parameter measured: Plant response rating, Wheat

>>> df
                                   compound            parameter_measured  measured
0  FC(F)c1cnn(-c2c(Cl)cccc2Oc2ncc(Cl)cn2)c1 [Compound 192]  Plant response rating, Wheat         5
1  N#Cc1cnn(-c2c(C#N)cccc2Oc2ncc(Cl)cn2)c1 [Compound 200]  Plant response rating, Wheat         5
2  FCc1cccc(Oc2ncc(Cl)cn2)c1-n1cc(I)cn1 [Compound 245]  Plant response rating, Wheat         5
3  Clc1cnc(Oc2cccc(Cl)c2-n2cc(I)cn2)nc1 [Compound 181]  Plant response rating, Wheat         5

###

Overview of recorded Plant response rating, Ragweed for various compounds
# Test system: ragweed
# Assay remarks: Test A preemergence
# Type: in vivo, Ambrosia elatior
# Condition set: 125 g ai/ha, 0 to 100 scale where 0 is no effect and 100 is complete control
Parameter measured: Plant response rating, Ragweed

                         chemical_structure  measured
0  Fc1cnc(Oc2cccc(Cl)c2-n2cc(OC(F)F)cn2)nc1        30
1      Clc1cnc(Oc2cccc(Br)c2-n2cc(I)nn2)nc1        20
2    Cc1cnc(Oc2cccc(C#N)c2-n2cc(C#N)cn2)nc1        50
3  FC(F)(F)COc1cnn(-c2c(Cl)cccc2Oc2ncc(Cl)cn2)c1        10

###

Parameter Plant response rating, Oat, Wild: see the listing below.
# System: wild oat
# Assay remarks: Test C postemergence
# Format: in vivo, Avena fatua
# Condition set: 125 g ai/ha, postemergence; visual rating, scale 0 to 100 (0 no effect, 100 complete control)
Parameter measured: Plant response rating, Oat, Wild

In [3]: df
Out[3]:
                         chemical_structure  measured
0     Clc1cnc(Oc2cccc(Br)c2-n2cc(Cl)cn2)nc1        30
1  Fc1cnc(Oc2cccc(C(F)F)c2-n2cc(C(F)(F)F)cn2)nc1        15
2  FC(F)c1cccc(Oc2ncc(Br)cn2)c1-n1cc(C(F)(F)F)cn1        20
3  Cc1cnc(Oc2cccc(C#N)c2-n2cc(C(F)(F)F)cn2)nc1        30

###

# System: waterhemp
# Assay remarks: Test C postemergence
# Assay type: in vivo, Amaranthus rudis
# Condition set: Postemergence, 62 g ai/ha; scale 0 to 100 (0 no effect, 100 complete control)
Parameter measured: Plant response rating, Waterhemp

                                   compound  measured
0  N#Cc1cccc(Oc2ncc(Cl)cn2)c1-n1cc(Cl)cn1 [Compound 72]        75
1  FCc1cn(-c2ccccc2Oc2ncc(Cl)cn2)nn1 [Compound 123]        80
2  Cc1cnc(Oc2cccc(C#N)c2-n2cc(C#N)cn2)nc1 [Compound 90]        65
3  Fc1cnc(Oc2cccc(C(F)F)c2-n2cc(C(F)(F)F)cn2)nc1 [Compound 164]        65
4  FC(F)c1cccc(Oc2ncc(Br)cn2)c1-n1cc(C(F)(F)F)cn1 [Compound 163]        85
5  N#Cc1cnn(-c2c(Br)cccc2Oc2ncc(Cl)cn2)c1 [Compound 140]        80
6  Clc1cnc(Oc2cccc(Br)c2-n2cc(I)nn2)nc1 [Compound 117]        85

###

# Test system: kochia
# Assay remarks: Test A preemergence
# Type: in vivo, Kochia scoparia
# Condition set: 125 g ai/ha
Parameter measured: Kochia plant response rating (0 to 100 scale)

>>> print(df.to_string())
                         chemical_structure  measured
0  FC(F)(F)c1cnn(-c2c(Oc3ncc(Cl)cn3)cccc2-c2ncon2)c1        90
1   N#Cc1cn(-c2c(C#N)cccc2Oc2ncc(Cl)cn2)nn1       100
2  N#Cc1cccc(Oc2ncc(Cl)cn2)c1-n1cc(C(F)F)cn1       100
3      FCc1cccc(Oc2ncc(F)cn2)c1-n1cc(Cl)cn1        40
4  Fc1cccc(Oc2ncc(Cl)cn2)c1-n1cc(OC(F)F)cn1       100

###

Examples of molecules with documented Plant response rating, Morningglory follow.
# System: morningglory
# Assay remarks: Test A preemergence
# Format: in vivo, Ipomoea spp.
# Condition set: 125 g ai/ha, 0 to 100 scale where 0 is no effect and 100 is complete control
Parameter measured: Plant response rating, Morningglory

                                   molecule   system_name  measured
0  FC(F)c1cnn(-c2ccccc2Oc2ncc(Cl)cn2)c1 [Compound 80]  morningglory        30
1  C=Cc1cnn(-c2ccccc2Oc2ncc(Cl)cn2)c1 [Compound 31]  morningglory         0
2  Cc1cccc(Oc2ncc(Cl)cn2)c1-n1cc(Br)cn1 [Compound 44]  morningglory        50
3  Cc1cnc(Oc2cccc(C#N)c2-n2cc(Br)cn2)nc1 [Compound 76]  morningglory         0
4  FC(F)Oc1cnn(-c2ccccc2Oc2ncc(Cl)cn2)c1 [Compound 98]  morningglory        60
5  CC=Cc1cnn(-c2ccccc2Oc2ncc(Cl)cn2)c1 [Compound 27]  morningglory         0
6  N#Cc1cccc(Oc2ncc(F)cn2)c1-n1cc(C(F)(F)F)cn1 [Compound 79]  morningglory       100
7  Clc1cnc(Oc2cc(Cl)ccc2-n2cc(Br)cn2)nc1 [Compound 51]  morningglory         0
8  Cc1cccc(Oc2ncc(Br)cn2)c1-n1cc(Br)cn1 [Compound 45]  morningglory         0
9  COc1cccc(-n2cc(Br)cn2)c1Oc1ncc(Cl)cn1 [Compound 41]  morningglory         0

###

# System: wheat
# Assay remarks: Test A postemergence
# Format: in vivo, Triticum aestivum
# Condition set: 125 g ai/ha, 0 to 100 scale where 0 is no effect and 100 is complete control
Parameter measured: Plant response rating, Wheat

>>> print(df.to_string())
                         chemical_structure            parameter_measured  measured
0     COc1cccc(-n2cc(Br)cn2)c1Oc1ncc(Cl)cn1  Plant response rating, Wheat         0
1        N#Cc1cnn(-c2ccccc2Oc2ncc(Cl)cn2)c1  Plant response rating, Wheat         0
2  CC(C)c1cnn(-c2c(C#N)cccc2Oc2ncc(Cl)cn2)c1  Plant response rating, Wheat         0
3    N#Cc1cccc(Oc2ncc(Br)cn2)c1-n1cc(Cl)cn1  Plant response rating, Wheat        10
4    N#Cc1cccc(Oc2ncc(Br)cn2)c1-n1cc(Br)cn1  Plant response rating, Wheat         0
5    Fc1cnc(Oc2ccccc2-n2cc(C(F)(F)F)cn2)nc1  Plant response rating, Wheat        60
6         Clc1cnc(Oc2ccccc2-n2ccc(Br)n2)nc1  Plant response rating, Wheat         0
7     Cc1cnn(-c2c(C#N)cccc2Oc2ncc(Cl)cn2)c1  Plant response rating, Wheat         0
8  FC(F)(F)c1cnc(Oc2ccccc2-n2ccc(C(F)(F)F)n2)nc1  Plant response rating, Wheat         0
